Listing: CTGlo-ATS Mean MinResponse % 72 h PANC0504.1 of selected compounds
system: Panc 05.04 cells (SF3b K700E mutant); assay: Cell proliferation and viability, CellTiter-Glo, 72 hours; assay type: cell-based; conditions: 72 h; PANC0504.1; -100% = cidal, 0% = static, 100% = uninhibited growth
# unit: % | format: bare number

Some solved cases for reference:
**Q:** So what's the measured CTGlo-ATS Mean MinResponse % 72 h PANC0504.1 for this one? C/C(=C\c1cc(F)cc(N2CCOCC2)c1)[C@H]1OC(=O)C[C@H](O)CC[C@H](C)[C@@H](OC(=O)NCCCN2CCOCC2)/C=C/[C@@H]1C
**A:** −88.873

**Q:** So what's the measured CTGlo-ATS Mean MinResponse % 72 h PANC0504.1 for this one? C/C(=C\c1cccc(COC(=O)N2CCOCC2)c1)[C@H]1OC(=O)C[C@H](O)CC[C@H](C)[C@@H](OC(=O)N2CCN(C)CC2)/C=C/[C@@H]1C
**A:** −75.412

# context switch: different compound, same CTGlo-ATS Mean MinResponse % 72 h PANC0504.1
**Q:** So what's the measured CTGlo-ATS Mean MinResponse % 72 h PANC0504.1 for this one? C/C(=C\c1cc(F)cc(N2CCOCC2)c1)[C@H]1OC(=O)C[C@H](O)CC[C@H](C)[C@@H](OC(=O)N2CCC(N(C)C)C2)/C=C/[C@@H]1C (stereo in doubt)
**A:** −92.290

----------
target: SF3b complexes (Homo sapiens, UniProt O75533+Q7RTV0); construct: endogenous in cells; host or cells: Nuclear extracts; A HeLa S3 extract preparation is described for the in vitro splicing assay; assay: Scintillation proximity assay (SPA) with [3H]-labelled pladienolide probe; type: binding; settings: SF3B1 (WT); geometric mean; read-out: SPA-ATS GMean IC50 (nM) SF3B1 (WT)
Listing: IC50 of selected compounds
# unit: nM | format: bare number

**Q:** Kindly state the measured IC50 obtained for C/C(=C\c1cc(F)cc(N2CCN(C(=O)[C@H]3CCOC3)CC2)c1)[C@H]1OC(=O)C[C@H](O)CC[C@H](C)[C@@H](OC(=O)N2CCN(C)CC2)/C=C/[C@@H]1C with SF3b complexes (Homo sapiens, UniProt O75533+Q7RTV0).
**A:** 3.41

**Q:** Kindly state the measured IC50 obtained for C/C(=C\c1cc(F)cc(N2CCN(C(=O)C3COC3)CC2)c1)[C@H]1OC(=O)C[C@H](O)CC[C@H](C)[C@@H](OC(=O)N2CCN(C)CC2)/C=C/[C@@H]1C with SF3b complexes (Homo sapiens, UniProt O75533+Q7RTV0).
**A:** 4.83

**Q:** Kindly state the measured IC50 obtained for C/C(=C\c1cc(F)cc(N2CCOCC2)c1)[C@H]1OC(=O)C[C@H](O)CC[C@H](C)[C@@H](OC(=O)N2CC[C@@H](F)C2)/C=C/[C@@H]1C with SF3b complexes (Homo sapiens, UniProt O75533+Q7RTV0).
**A:** 14.4

Continuing:
**Q:** Kindly state the measured IC50 obtained for C/C(=C\c1cc(F)cc(N2CCN(C(=O)Cn3cccn3)CC2)c1)[C@H]1OC(=O)C[C@H](O)CC[C@H](C)[C@@H](OC(=O)N2CCCN(C)CC2)/C=C/[C@@H]1C with SF3b complexes (Homo sapiens, UniProt O75533+Q7RTV0).
**A:** 18.2

**Q:** Kindly state the measured IC50 obtained for C/C(=C\c1cc(F)cc(N2CCN(C(=O)Cn3cccn3)CC2)c1)[C@H]1OC(=O)C[C@H](O)CC[C@H](C)[C@@H](OC(=O)NCc2ccncn2)/C=C/[C@@H]1C with SF3b complexes (Homo sapiens, UniProt O75533+Q7RTV0).
**A:** 23.6

**Q:** Kindly state the measured IC50 obtained for C/C(=C\c1cccc(COC(=O)N2CC[C@@H](F)C2)c1)[C@H]1OC(=O)C[C@H](O)CC[C@H](C)[C@@H](OC(=O)N2CCN(C)CC2)/C=C/[C@@H]1C [Compound 260] with SF3b complexes (Homo sapiens, UniProt O75533+Q7RTV0).
**A:** 0.196

**Q:** Kindly state the measured IC50 obtained for C/C(=C\c1cc(F)cc(N2CCC[C@@H]2CO)c1)[C@H]1OC(=O)C[C@H](O)CC[C@H](C)[C@@H](OC(=O)N2CCN(C)CC2)/C=C/[C@@H]1C with SF3b complexes (Homo sapiens, UniProt O75533+Q7RTV0).
**A:** 8.26

**Q:** Kindly state the measured IC50 obtained for C/C(=C\c1cc(F)c2nn(C3CCOCC3)nc2c1)[C@H]1OC(=O)C[C@H](O)CC[C@H](C)[C@@H](OC(=O)N2CCN(C)CC2)/C=C/[C@@H]1C with SF3b complexes (Homo sapiens, UniProt O75533+Q7RTV0).
**A:** 13

**Q:** Kindly state the measured IC50 obtained for C/C(=C\c1cc(F)cc(N2CCN(CCN3CCOCC3)C2=O)c1)[C@H]1OC(=O)C[C@H](O)CC[C@H](C)[C@@H](OC(=O)N2CCN(C)CC2)/C=C/[C@@H]1C with SF3b complexes (Homo sapiens, UniProt O75533+Q7RTV0).
**A:** 1.95

**Q:** Kindly state the measured IC50 obtained for C/C(=C\c1cc(C)cc(N2CCOCC2)c1)[C@H]1OC(=O)C[C@H](O)CC[C@H](C)[C@@H](OC(=O)N2CCN(C)CC2)/C=C/[C@@H]1C with SF3b complexes (Homo sapiens, UniProt O75533+Q7RTV0).
**A:** 16.7

**Q:** Kindly state the measured IC50 obtained for C/C(=C\c1cc(F)cc(N2CCOCC2)c1)[C@H]1OC(=O)C[C@H](O)CC[C@@](C)(O)[C@@H](OC(=O)N2CCN(C)CC2)/C=C/[C@@H]1C with SF3b complexes (Homo sapiens, UniProt O75533+Q7RTV0).
**A:** 13.5

**Q:** Kindly state the measured IC50 obtained for CC(=O)N1CCC(CN(C)c2cc(F)cc(/C=C(\C)[C@H]3OC(=O)C[C@H](O)CC[C@H](C)[C@@H](OC(=O)N4CCN(C)CC4)/C=C/[C@@H]3C)c2)CC1 with SF3b complexes (Homo sapiens, UniProt O75533+Q7RTV0).
**A:** 12.6

----------
tested on: Panc 05.04 cells (SF3b K700E mutant); assay: Cell proliferation and viability, CellTiter-Glo, 72 hours; type: cell-based; details: Panc 05.04, read-out: CTGlo-ATS GMean GI50 (nM) 72 h PANC0504.1; PANC0504.1 cells, 72 h; geometric mean
endpoint.name: GI50 (nM)
# unit: nM | format: bare number

**Q:** So what's the measured GI50 for this one? C=CS(=O)(=O)N1CCN(c2cc(F)cc(/C=C(\C)[C@H]3OC(=O)C[C@H](O)CC[C@H](C)[C@@H](OC(=O)N4CCN(C)CC4)/C=C/[C@@H]3C)c2)CC1
**A:** 13.1

**Q:** So what's the measured GI50 for this one? C/C(=C\c1cc(F)cc(N2CCN(S(=O)(=O)c3ccc4ccn(C)c4c3)CC2)c1)[C@H]1OC(=O)C[C@H](O)CC[C@H](C)[C@@H](OC(=O)N2CCN(C)CC2)/C=C/[C@@H]1C
**A:** 85.2

**Q:** So what's the measured GI50 for this one? C/C(=C\c1cc(F)cc(N2CCN(CCO)CC2)c1)[C@H]1OC(=O)C[C@H](O)CC[C@H](C)[C@@H](OC(=O)N(C)C2CCN(C)CC2)/C=C/[C@@H]1C
**A:** 8.66

----------
test system: Panc 05.04 cells (SF3b K700E mutant); experiment: Cell proliferation and viability, CellTiter-Glo, 72 hours; type: cell-based; settings: PANC0504.1 cells, 72 h; −100% cidal, 0% static, 100% maximal growth
Listing: CTGlo-ATS Mean MinResponse % 72 h PANC0504.1 of selected compounds
# unit: % | format: bare number

Some solved cases for reference:
**Q:** Kindly state the measured CTGlo-ATS Mean MinResponse % 72 h PANC0504.1 obtained for COCCC(=O)N1CCN(c2cc(F)cc(/C=C(\C)[C@H]3OC(=O)C[C@H](O)CC[C@H](C)[C@@H](OC(=O)N4CCN(C)CC4)/C=C/[C@@H]3C)c2)CC1 with Panc 05.04 cells (SF3b K700E mutant).
**A:** −92.570

**Q:** Kindly state the measured CTGlo-ATS Mean MinResponse % 72 h PANC0504.1 obtained for C/C(=C\c1cc(F)cc(N2CCS(=O)(=O)CC2)c1)[C@H]1OC(=O)C[C@H](O)CC[C@H](C)[C@@H](OC(=O)N2CCN(C)CC2)/C=C/[C@@H]1C with Panc 05.04 cells (SF3b K700E mutant).
**A:** −76.609

Continuing:
**Q:** Kindly state the measured CTGlo-ATS Mean MinResponse % 72 h PANC0504.1 obtained for C/C(=C\c1cnn(Cc2ccncc2)c1)[C@H]1OC(=O)C[C@H](O)CC[C@H](C)[C@@H](OC(=O)N2CCN(C)CC2)/C=C/[C@@H]1C with Panc 05.04 cells (SF3b K700E mutant).
**A:** 24.371

**Q:** Kindly state the measured CTGlo-ATS Mean MinResponse % 72 h PANC0504.1 obtained for C/C(=C\c1cc(F)cc(N2CC(F)C2)c1)[C@H]1OC(=O)C[C@H](O)CC[C@H](C)[C@@H](OC(=O)N2CCN(C)CC2)/C=C/[C@@H]1C with Panc 05.04 cells (SF3b K700E mutant).
**A:** −88.672

**Q:** Kindly state the measured CTGlo-ATS Mean MinResponse % 72 h PANC0504.1 obtained for C/C(=C\c1cc(F)cc(N2CCN(S(C)(=O)=O)CC2)c1)[C@H]1OC(=O)C[C@H](O)CC[C@H](C)[C@@H](OC(=O)N2CCN(C)CC2)/C=C/[C@@H]1C with Panc 05.04 cells (SF3b K700E mutant).
**A:** −91.132

Data origin, for the record: patent US11679107B2
